Target: human ether-à-go-go-related gene (hERG) potassium channel (human)
Test: primary screen, population patch clamp on CHO cells stably expressing hERG; higher = less effect of the substance
Out of some 310,000 compounds screened, about 14,000 (4.5%) showed an effect of 50% or more. The effect is printed as a negative number. Many of the other results were omitted from the sample, so strong results are more common in it than they were.
measured parameter: hERG current change (%, negative = inhibition) at 10uM

Please review the entries below; each comes with its answer.
| compound | recorded result |
| --- | --- |
| Cc1cc(Nc2cccc([N+](=O)[O-])c2)c2ccccc2n1 | -76.9% |
| CCN(Cc1ccccc1)C(=O)COC(=O)c1cc(=O)[nH]c2ccccc12 | -4.27% |
| O=C(NCCNc1ccccc1[N+](=O)[O-])c1ccccc1F | 4.11% |
| CCc1ccc(C(=O)COC(=O)CNC(=O)c2ccco2)cc1 | -18.2% |

Prompt: Record lookup: for human ether-à-go-go-related gene (hERG) potassium channel (human), what hERG current change (%, negative = inhibition) at 10uM belongs to COc1ccc(C(=O)C2CCN(C(=S)Nc3ccc(F)cc3)CC2)cc1 ?
Completion: -46.9%

Prompt: Record lookup: for human ether-à-go-go-related gene (hERG) potassium channel (human), what hERG current change (%, negative = inhibition) at 10uM belongs to CCc1ccc(C(=O)COC(=O)CNC(=O)CNC(=O)Cc2ccccc2)cc1 ?
Completion: 9.36%

Prompt: Record lookup: for human ether-à-go-go-related gene (hERG) potassium channel (human), what hERG current change (%, negative = inhibition) at 10uM belongs to COc1ccccc1C(=O)NNC(=O)c1ccc(Br)o1 ?
Completion: 14%

Prompt: Record lookup: for human ether-à-go-go-related gene (hERG) potassium channel (human), what hERG current change (%, negative = inhibition) at 10uM belongs to CCN(CC)CCNc1ccc(Cl)cc1[N+](=O)[O-].Cl ?
Completion: -61.6%

Prompt: Record lookup: for human ether-à-go-go-related gene (hERG) potassium channel (human), what hERG current change (%, negative = inhibition) at 10uM belongs to COc1ccc(NC(=O)CC(c2ccc(F)cc2)c2ccc(OC(C)C)cc2)cc1 (stereo not shown) ?
Completion: 3.91%

* * *

Recorded hERG current change (%, negative = inhibition) at 10uM, one value per entry.
Target: human ether-à-go-go-related gene (hERG) potassium channel (human, UniProt Q12809);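 also: peak tail current of the secondary pulse compared with the same well before compound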
Sequence (Q12809 whole entry, looked up): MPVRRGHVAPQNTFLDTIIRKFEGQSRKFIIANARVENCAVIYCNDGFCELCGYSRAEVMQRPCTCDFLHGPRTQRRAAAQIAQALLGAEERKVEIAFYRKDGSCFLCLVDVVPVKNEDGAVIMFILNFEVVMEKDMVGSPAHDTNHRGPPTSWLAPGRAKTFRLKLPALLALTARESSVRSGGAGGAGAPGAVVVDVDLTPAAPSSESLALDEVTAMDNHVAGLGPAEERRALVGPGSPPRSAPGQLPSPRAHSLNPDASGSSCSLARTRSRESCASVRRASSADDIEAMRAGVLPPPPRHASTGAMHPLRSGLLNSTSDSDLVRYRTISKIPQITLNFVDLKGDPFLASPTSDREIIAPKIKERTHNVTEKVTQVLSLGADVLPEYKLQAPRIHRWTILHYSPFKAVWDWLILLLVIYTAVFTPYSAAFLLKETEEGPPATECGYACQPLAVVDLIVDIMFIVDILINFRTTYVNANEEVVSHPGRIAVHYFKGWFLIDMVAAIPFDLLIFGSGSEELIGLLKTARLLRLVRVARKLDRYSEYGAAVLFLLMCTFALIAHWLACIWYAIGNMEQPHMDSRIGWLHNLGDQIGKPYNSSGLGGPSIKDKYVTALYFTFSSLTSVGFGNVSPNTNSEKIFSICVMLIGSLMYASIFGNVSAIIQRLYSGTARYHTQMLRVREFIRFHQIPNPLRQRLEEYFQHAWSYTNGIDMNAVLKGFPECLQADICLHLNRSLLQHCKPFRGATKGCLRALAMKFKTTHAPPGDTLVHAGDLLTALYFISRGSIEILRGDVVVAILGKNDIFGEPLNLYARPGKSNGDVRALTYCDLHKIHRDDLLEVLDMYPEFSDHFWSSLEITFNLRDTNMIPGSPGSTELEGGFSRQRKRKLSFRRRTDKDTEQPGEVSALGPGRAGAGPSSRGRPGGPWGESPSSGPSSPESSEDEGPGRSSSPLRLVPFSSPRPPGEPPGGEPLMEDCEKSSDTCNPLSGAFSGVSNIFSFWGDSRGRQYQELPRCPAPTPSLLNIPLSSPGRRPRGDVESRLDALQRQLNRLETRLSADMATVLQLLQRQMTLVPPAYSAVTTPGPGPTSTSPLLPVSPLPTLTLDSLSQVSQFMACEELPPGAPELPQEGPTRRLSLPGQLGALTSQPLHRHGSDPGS
Assay: primary screen, population patch clamp on CHO cells stably expressing hERG; higher = less effect of the substance
In all, about 310,000 compounds went through this assay and about 14,000 (4.5%) showed an effect of 50% or more. The effect is printed as a negative number. For the sample, strong results were picked, then their nearest neighbours and some compounds at random.
Your answer should be a plain number; it is taken to be in %.

Please review the entries below; each comes with its answer.
| chemical string | recorded result |
| --- | --- |
| Cc1cccc(OCC(=O)N2CCC(N3CCCCCC3)CC2)c1 | -11.2 |
| C=CCc1ccc(OCCCCNC2CCCC2)c(OC)c1.O=C(O)C(=O)O | -39.9 |

Turning now to a further compound:
Prompt: Query (compound): c1ccc(-c2csc3nnc(SCc4ccc5c(c4)OCCO5)n23)cc1 ; field requested: hERG current change (%, negative = inhibition) at 10uM
Completion: -3.29

* * *

Recorded hERG current change (%, negative = inhibition) at 10uM, one value per entry.
Biological target: human ether-à-go-go-related gene (hERG) potassium channel (human, UniProt Q12809);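 also: peak tail current of the secondary pulse compared with the same well before compound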
Assay: primary screen, population patch clamp on CHO cells stably expressing hERG; higher = less effect of the substance
Out of some 310,000 compounds screened, about 14,000 (4.5%) showed an effect of 50% or more. Effects have a minus sign here. Shown is part of a subset that was picked to be rich in strong results.
Your answer should be a plain number; it is taken to be in %.

Please review the entries below; each comes with its answer.
| molecule | recorded result |
| --- | --- |
| CN(C(=O)COC(=O)c1ccc2c(c1)OCO2)C1CCS(=O)(=O)C1 (stereo not drawn) | 9.31 |
| Cc1cc(S(=O)(=O)Nc2nc(CN3CCOCC3)nc3sc4c(c23)CCCC4)ccc1F | -17.2 |
| CN(CC(=O)NCCC1=CCCCC1)S(=O)(=O)c1ccc2c(c1)c(=O)n(C)c(=O)n2C | -64.9 |
| CC1CN(C(=O)c2ccccc2OCc2ccc(Cl)cc2Cl)CC(C)O1 (stereo not drawn) | -37.7 |
| Cc1ccc(Oc2nc(CN3CCOCC3)nc3sc4c(c23)CCC(C)C4)cc1C (stereo not drawn) | 7.99 |
| COc1cc(NC(=O)C(C)Oc2ccccc2)cc(OC)c1 (stereo not drawn) | -2.9 |

Prompt: Query (molecule): O=S(=O)(Nc1ccccc1)c1ccc2c(c1)CCO2 ; field requested: hERG current change (%, negative = inhibition) at 10uM
Completion: 11

Prompt: Query (molecule): COc1cc2c(cc1OC)CN(c1nc(CN3CCOCC3)nc3sc4c(c13)CCCC4)CC2 ; field requested: hERG current change (%, negative = inhibition) at 10uM
Completion: -73.6

Prompt: Query (molecule): COc1cccc(Nc2nc(CN3CCOCC3)nc3sc4c(c23)CCCC4)c1 ; field requested: hERG current change (%, negative = inhibition) at 10uM
Completion: -53.1

* * *

Biological target: human ether-à-go-go-related gene (hERG) potassium channel (human, UniProt Q12809);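 also: peak tail current of the secondary pulse compared with the same well before compound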
Assay: primary screen, population patch clamp on CHO cells stably expressing hERG; higher = less effect of the substance
Procedure: Briefly, Chinese hamster ovary (CHO) cells stably expressing the hERG channel were dislodged from tissue culture flasks and dispensed into PPC plates. […] During the recording, background leak currents were estimated by a 100 ms step to -80 mV from an initial holding potential of -70 mV and subtracted from the subsequent current measurement. The campaign was conducted in two phases using slight differences in recording protocol. […]
Hit rate of the full screen: of about 310,000 compounds, about 14,000 (4.5%) showed an effect of 50% or more. Effects have a minus sign here. The sample as a whole holds a higher share of strong results than the screen did.
Mark 1.0 for reported hERG current change (%, negative = inhibition) at 10uM of -20% or greater; mark 0.0 for anything smaller.

Prompt: Does the compound CCOc1ccc(CCNC(=O)C2CCN(c3nnc(-n4cccc4)s3)CC2)cc1OCC have recorded hERG current change (%, negative = inhibition) at 10uM that is -20% or more?
Completion: 0.0

* * *

Recorded hERG current change (%, negative = inhibition) at 10uM, one value per entry.
Target: human ether-à-go-go-related gene (hERG) potassium channel (human, UniProt Q12809);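 also: peak tail current of the secondary pulse compared with the same well before compound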
Experiment: primary screen, population patch clamp on CHO cells stably expressing hERG; higher = less effect of the substance
About 14,000 (4.5%) of roughly 310,000 compounds showed an effect of 50% or more. The effect is printed as a negative number. For the sample, strong results were picked, then their nearest neighbours and some compounds at random.
Your answer should be a plain number; it is taken to be in %.

Please review the entries below; each comes with its answer.
| molecule | assay system | uom | recorded result |
| --- | --- | --- | --- |
| CN(Cc1ccccc1N1CCCC1)C(=O)c1cc2cc(Cl)ccc2o1 | human ether-à-go-go-related gene (hERG) potassium channel (human, UniProt Q12809) | % | -13.4 |
| O=C(NCc1ccccc1CN1CCCC1)c1cc2ccccc2o1 | human ether-à-go-go-related gene (hERG) potassium channel (human, UniProt Q12809) | % | -69.4 |
| CCN1CCC2(CC1)N=C(c1ccc(F)cc1)C(=S)N2C(=O)c1ccc(C(C)(C)C)cc1 | human ether-à-go-go-related gene (hERG) potassium channel (human, UniProt Q12809) | % | -10.8 |
| O=C(NCC(c1ccco1)N1CCCC1)c1ccc(Cl)cc1 (centres unmarked) | human ether-à-go-go-related gene (hERG) potassium channel (human, UniProt Q12809) | % | -22.8 |
| O=C(CCSCc1cccc(Cl)c1)NCCc1ccc(Cl)cc1 | human ether-à-go-go-related gene (hERG) potassium channel (human, UniProt Q12809) | % | 4.09 |
| COc1cccc(CC2(CO)CCCN(C/C=C/c3ccccc3OC)C2)c1 (centres unmarked) | human ether-à-go-go-related gene (hERG) potassium channel (human, UniProt Q12809) | % | -73.2 |
| CCn1c(SCC(=O)NCC(=O)Nc2ccc(F)cc2)nnc1-c1cccs1 | human ether-à-go-go-related gene (hERG) potassium channel (human, UniProt Q12809) | % | -25.1 |
| CCn1c(CSCc2ccc(F)cc2)nnc1SCC(=O)N1CCN(c2ccccc2)CC1 | human ether-à-go-go-related gene (hERG) potassium channel (human, UniProt Q12809) | % | -58.6 |

Prompt: Record lookup: for human ether-à-go-go-related gene (hERG) potassium channel (human, UniProt Q12809), what hERG current change (%, negative = inhibition) at 10uM belongs to NC(=O)c1ccccc1NC(=O)CSc1cn[nH]n1 ?
Completion: 13.2

The measurements presented in this section are drawn from paper PMC4336329.
